- assay.info: solvent given as SMILES
- assay.context: in ClCCl
Define the label as Criterion met when emission maximum is strictly less than 500 nm and as Criterion not met in all remaining cases.

Exam item: Would you kindly verify if emission maximum of CCCCN(CCCC)c1ccc(/C=C/c2ccc3nc(/C=C/c4ccc(N(C)C)cc4)c(=O)n(CCC)c3c2)cc1 is strictly less than 500 nm?
Marked response: Criterion not met

Exam item: Would you kindly verify if emission maximum of O=S1c2ccc(-c3c4ccccc4cc4ccccc34)cc2-c2cc(-c3c4ccccc4cc4ccccc34)ccc21 is strictly less than 500 nm?
Marked response: Criterion met

Exam item: Would you kindly verify if emission maximum of CC(C)[Si](C#Cc1c2cc3ccccc3cc2c(C#C[Si](C(C)C)(C(C)C)C(C)C)c2cc3ccccc3cc12)(C(C)C)C(C)C is strictly less than 500 nm?
Marked response: Criterion not met

Exam item: Would you kindly verify if emission maximum of N#Cc1c(-n2c3ccccc3c3ccccc32)c(-n2c3ccccc3c3ccccc32)cc(-n2c3ccccc3c3ccccc32)c1-n1c2ccccc2c2ccccc21 is strictly less than 500 nm?
Marked response: Criterion met

Exam item: Would you kindly verify if emission maximum of O=Cc1ccc(-c2ccc(-c3nc4ccccc4s3)c(O)c2)s1 is strictly less than 500 nm?
Marked response: Criterion not met

Exam item: Would you kindly verify if emission maximum of CCC1=C(C)C2=Cc3c4ccccc4c4n3[B-](c3ccc5cc6ccccc6cc5c3)(Oc3ccccc3-4)[N+]2=C1C (stereo not drawn) is strictly less than 500 nm?
Marked response: Criterion not met

Exam item: Would you kindly verify if emission maximum of CC1=C(c2cccs2)C(C)=[N+]2C1=C(c1ccc(O)cc1)c1c(C)c(-c3cccs3)c(C)n1[B-]2(F)F is strictly less than 500 nm?
Marked response: Criterion not met

---

- assay.info: solvent given as SMILES
- assay.context: in ClC(Cl)Cl
Response key: T means emission maximum >= 500 nm; F means emission maximum < 500 nm.

Exam item: For this compound, is measured emission maximum 500 nm or higher? [C-]#[N+]c1ccc(-c2ccc(N)cc2)cc1
Marked response: F

Exam item: For this compound, is measured emission maximum 500 nm or higher? CC(C)(C)NC(=O)c1c([Si](C)(C)C)cc2ccc3cccc4ccc1c2c34
Marked response: F

Exam item: For this compound, is measured emission maximum 500 nm or higher? N#Cc1nc(N(Cc2ccc(F)cc2)Cc2ccc(F)cc2)c(C#N)nc1N(Cc1ccc(F)cc1)Cc1ccc(F)cc1
Marked response: T

Exam item: For this compound, is measured emission maximum 500 nm or higher? CN(C)c1ccc(-c2ccc(-c3cc(-c4ccccc4)c(-c4ccccc4)c(-c4ccccc4)c3-c3ccccc3)s2)cc1
Marked response: F

Exam item: For this compound, is measured emission maximum 500 nm or higher? CN1C(=CC2=C([O-])C(=Cc3sc4ccccc4[n+]3C)C2=C(C#N)C#N)Sc2ccccc21
Marked response: T

Exam item: For this compound, is measured emission maximum 500 nm or higher? CC(=O)OCCOCCN1C(=O)c2cc(NCCOCCO)c3c4c(cc(NCCOCCO)c(c24)C1=O)C(=O)N(CCOCCOC(C)=O)C3=O
Marked response: T

Exam item: For this compound, is measured emission maximum 500 nm or higher? CN1C(=CC2=C([O-])C(=Cc3sc4ccccc4[n+]3C)C2=C(C#N)C#N)C(C)(C)c2ccccc21
Marked response: T

Exam item: For this compound, is measured emission maximum 500 nm or higher? O=C1OC(=O)[C@H]2[C@@H]1[C@@H]1C[C@H]2c2c1c(-c1ccccc1)c1ccccc1c2-c1ccccc1
Marked response: F

Exam item: For this compound, is measured emission maximum 500 nm or higher? CCCCCCCCC1(CCCCCCCC)c2cc(-c3ccc(C(=O)OC)cc3)ccc2-c2ccc(-c3ccc(C(=O)OC)cc3)cc21
Marked response: F

Exam item: For this compound, is measured emission maximum 500 nm or higher? CC(C)(C)c1ccc(C2=CC(c3ccccc3)=[N+]3C2=Nc2c(-c4ccc(C(C)(C)C)cc4)cc(-c4ccccc4)n2[B-]3(F)F)cc1
Marked response: T

Exam item: For this compound, is measured emission maximum 500 nm or higher? O=c1oc2ccccc2cc1-c1ccc(-c2cc3ccccc3oc2=O)cc1
Marked response: F

Exam item: For this compound, is measured emission maximum 500 nm or higher? CCCCCCCCCCCCc1sc(CCCCCC)c2c3cc(CCCCCC)sc3c3sc(CCCCCC)cc3c12
Marked response: F

Exam item: For this compound, is measured emission maximum 500 nm or higher? Cc1cc(C)c(C2=C3C=CC(c4ccc5ccccc5c4)=[N+]3[B-](F)(F)n3c2ccc3-c2ccc3ccccc3c2)c(C)c1
Marked response: T

Exam item: For this compound, is measured emission maximum 500 nm or higher? COc1cc2cc(C#N)c3ccc4ccccc4c3c2cc1OC
Marked response: F

Exam item: For this compound, is measured emission maximum 500 nm or higher? CC(C)(C)c1ccc(Oc2cc3c4c(cc(Oc5ccc(C(C)(C)C)cc5)c5c6c(Oc7ccc(C(C)(C)C)cc7)cc7c8c(cc(Oc9ccc(C(C)(C)C)cc9)c(c2c45)c86)C(=O)OC7=O)C(=O)OC3=O)cc1
Marked response: T

Exam item: For this compound, is measured emission maximum 500 nm or higher? CCOC(CN1C(=O)C2=C(c3ccsc3)N(CC(OCC)OCC)C(=O)C2=C1c1ccsc1)OCC
Marked response: T

Exam item: For this compound, is measured emission maximum 500 nm or higher? CCC1=C(C)C(=O)n2c1cc1c(c(C)c(C(=O)OCC(C)C)n1CC(C)C)c2=O
Marked response: F

Exam item: For this compound, is measured emission maximum 500 nm or higher? CC(C)(C)c1ccc2c(c1)oc1nc3oc4ccc(-n5c6ccccc6c6ccccc65)cc4c3cc12
Marked response: F

Exam item: For this compound, is measured emission maximum 500 nm or higher? CCCCCCCCCCCCOc1cc2c3cc(OCCCCCCCCCCCC)c(OCCCCCCCCCCCC)cc3c3c(cc(OCCCCCCCCCCCC)c4nc5cc(C#Cc6ccc(CCCCCCCCCC)cc6)c(C#Cc6ccc(CCCCCCCCCC)cc6)cc5nc43)c2cc1OCCCCCCCCCCCC
Marked response: T

Exam item: For this compound, is measured emission maximum 500 nm or higher? CCC1=C(C)C2=Cc3cscc3B(O)N2C1=O
Marked response: F

Exam item: For this compound, is measured emission maximum 500 nm or higher? CCCCCCN1C(=O)c2cccc3c(-c4ccc(-c5cccs5)s4)ccc(c23)C1=O
Marked response: T

Exam item: For this compound, is measured emission maximum 500 nm or higher? CC1=CC(C)=[N+]2C1=C(c1ccc3cccnc3n1)c1c(C)cc(C)n1[B-]2(F)F
Marked response: T

Exam item: For this compound, is measured emission maximum 500 nm or higher? CCCCCCCCc1ccc(-c2ccc(-c3cc(-c4ccc(-c5ccc(CCCCCCCC)s5)c5nsnc45)c4ccc5c(-c6ccc(-c7ccc(CCCCCCCC)s7)c7nsnc67)cc(-c6ccc(-c7ccc(CCCCCCCC)s7)c7nsnc67)c6ccc3c4c65)c3nsnc23)s1
Marked response: T

Exam item: For this compound, is measured emission maximum 500 nm or higher? c1cc2cc(c1)c1ccc3c(c1)c1cc(ccc1[C@]14OCCO[C@]31OCCO4)c1ccc3c(c1)c1cc(ccc1[C@]14OCCO[C@]31OCCO4)c1cccc2c1
Marked response: F

Exam item: For this compound, is measured emission maximum 500 nm or higher? C/C=C/C1=NC(=C\c2ccc(O)cc2)/C(=O)N1C
Marked response: F

Exam item: For this compound, is measured emission maximum 500 nm or higher? c1ccc2c(c1)ccc1ccc3ccc4ccccc4c3c12
Marked response: F

Exam item: For this compound, is measured emission maximum 500 nm or higher? CCn1c2ccccc2c2cc3c(cc21)c1ccccc1n3CC
Marked response: F

---

- assay.info: solvent given as SMILES
- assay.context: in OCCOCCO
Assign emission maximum to each entry below.
Give just the numeric value; nm need not be written.

Exam item: Form field: reported emission maximum of CC1CC=C(c2ccc(-c3cccs3)s2)CC1 (centres undefined)
Marked response: 414

Exam item: Form field: reported emission maximum of C1=C(c2ccc(-c3cccs3)s2)CCC(c2ccccc2)C1 (centres undefined)
Marked response: 412

Exam item: Form field: reported emission maximum of C1=C(c2ccc(-c3cccs3)s2)CCCC1
Marked response: 446

Exam item: Form field: reported emission maximum of N#CC1=C(c2ccc(-c3cccs3)s2)CCC1
Marked response: 455

---

- assay.info: solvent given as SMILES
- assay.context: in ClC(Cl)Cl
Define the label as criterion met when emission maximum is strictly less than 500 nm and as criterion not met in all remaining cases.

Exam item: Would you kindly verify if emission maximum of CC1=CC(C)=[N+]2C1=C(c1ccc(I)cc1)c1c(C)cc(C)n1[B-]2(Oc1ccc([N+](=O)[O-])cc1)Oc1ccc([N+](=O)[O-])cc1 is strictly less than 500 nm?
Marked response: criterion not met

Exam item: Would you kindly verify if emission maximum of CN(C)c1ccc(/C=C/C=C/c2nc3ccccc3s2)cc1 is strictly less than 500 nm?
Marked response: criterion not met

Exam item: Would you kindly verify if emission maximum of c1cc2ccc3[nH]c4ccc5cccc6c(c1)c2c3c4c56 is strictly less than 500 nm?
Marked response: criterion met

Exam item: Would you kindly verify if emission maximum of CCOC(=O)C1=C(C)NC2=C(C(=O)c3ccccc32)C1c1ccc(N(C)C)cc1 (centres undefined) is strictly less than 500 nm?
Marked response: criterion not met

Exam item: Would you kindly verify if emission maximum of CCCCCCCC1=C(C)C(=O)n2c1cc1[nH]c(C(=O)OC)c(C)c1c2=O is strictly less than 500 nm?
Marked response: criterion met

Exam item: Would you kindly verify if emission maximum of CC(=O)OCCN1C(=O)c2cccc3c(Oc4ccccc4C)ccc(c23)C1=O is strictly less than 500 nm?
Marked response: criterion met

Exam item: Would you kindly verify if emission maximum of COc1ccc2c(C=C(C#N)C#N)cc3ccc4cc(C=C(C#N)C#N)c5ccc(OC)cc5c4c3c2c1 is strictly less than 500 nm?
Marked response: criterion not met

Exam item: Would you kindly verify if emission maximum of Cc1ccccc1CN(Cc1ccccc1C)c1nc(C#N)c(N(Cc2ccccc2C)Cc2ccccc2C)nc1C#N is strictly less than 500 nm?
Marked response: criterion not met
